target: PEG-3 (UniProt Q6IN02); assay: GAPDH versus PEG-3 reporter suppression – cell-based, luminescence, counter-screen for PEG-3 promoter inhibitor project, SAR follow-up (AID 651551); details: HeLa PEG-Prom / GAPDH luciferase reporter, 6 or 24 h, run 3, 6 h; at 99 µM (top of the series)
Could you label it Criterion met if measured inhibition % (higher = more inhibition) is 40% or higher, and Criterion not met otherwise?

Is reported inhibition % (higher = more inhibition) greater than or equal to 40% here: Cc1nc(NC(=O)c2ccccc2)sc1-c1csc(Nc2ccccc2)n1 Criterion not met

Now the same for CCCn1nc(C(=O)Nc2nc(-c3ccccn3)cs2)c2ccccc2c1=O Criterion not met

Same again, this time with Cc1cc(NC(=O)c2ccccc2C(F)(F)F)n(-c2nc3ccccc3[nH]2)n1 Criterion met

Entry COc1ccccc1Nc1nc(-c2sc(NC(=O)c3ccco3)nc2C)cs1 please Criterion not met

Now consider CCCn1nc(C(=O)Nc2nc3ccccc3s2)c2ccccc2c1=O and answer again. Criterion not met

Try COCCCNC(=O)c1ccc(Cn2c(=O)c3ccccc3n(Cc3ccccc3C#N)c2=O)cc1 next. Criterion not met

Also need Cc1nc(NC(=O)c2ccccc2)sc1-c1csc(Nc2cccc(Cl)c2C)n1 , thanks. Criterion met

What about COc1ccc(-n2nc(C(=O)NCC(=O)Nc3cc(OC)c(OC)c(OC)c3)c3ccccc3c2=O)cc1OC ? Criterion not met

Lookup Cc1nc(NC(=O)c2ccccc2)sc1-c1csc(Nc2ccccc2Cl)n1 Criterion not met

Can you handle COc1ccc(-n2nc(C(=O)NCC(=O)Nc3cccc(OC)c3)c3ccccc3c2=O)cc1 next? Criterion not met

Repeat for the following molecule: CCn1cc(C(=O)NCc2ccco2)c(=O)c2cc(S(=O)(=O)N3CCCC3)ccc21 Criterion not met

Field entry: COc1ccc(Cl)cc1Nc1nc(-c2sc(NC(=O)c3ccccc3)nc2C)cs1 Criterion met

Note, next up: CCCn1nc(C(=O)Nc2nc(-c3ccncc3)cs2)c2ccccc2c1=O Criterion not met

These data points were gathered from PubChem BioAssay AID651551.
